Tested on: HL-60 human acute promyelocytic leukemia (Mitoxantrone-sensitive)
measurement-protocol: Cytotoxicity / growth inhibition in sensitive leukemia cells
Format: cell-based
condition-context: Table 20, mean of two independent experiments, 48 hours
experimental-readout: EC50

Please supply the value of reported EC50 for the item O=C1c2c(O)ccc(O)c2C(=O)c2c(NCCNCCO)ccc(NCCNCCO)c21
42 nM

----------
System: HT-29 human colon cells
measurement-protocol: Tumor cytotoxicity / cell growth inhibition assay, resazurin fluorescence, 48 h
Type: cell-based

- compound: "COc1cc(/C=c2\\[nH]c(=O)/c(=C/c3nc[nH]c3C(C)(C)C)[nH]c2=O)cc(OC)c1OC [KPU-11, tBu-ΔPLH-3,4,5-triOMe]"
  cytotoxic activity against HT-29 cells: "also showed activity"
- compound: "COc1ccc(/C=c2\\[nH]c(=O)/c(=C/c3nc[nH]c3C(C)(C)C)[nH]c2=O)c(OC)c1OC [KPU-17, tBu-ΔPLH-2,3,4-TriOMe]"
  cytotoxic activity against HT-29 cells: "also showed activity"

----------
Test system: HT-29 human colon cells
measurement-protocol: Tumor cytotoxicity / cell growth inhibition assay, resazurin fluorescence, 48 h
Assay type: cell-based
condition-context: Homo sapiens; Table 3.2; HT-29 cells, 48 hours; read-out: EC50 (M) Mean
experimental-readout: EC50 (M)
Value expressed in M; do not type the unit.

Provide HT-29 human colon cells EC50 reading for CC(C)(C)c1ocnc1/C=c1\[nH]c(=O)/c(=C/c2ccccc2F)[nH]c1=O .
4.66e-08

----------
measurement-protocol: Cytotoxicity, resazurin
Assay type: cell-based
condition-context: human, CCD-27sk normal fibroblasts; Table 12; CCD-27sk Fibroblast
experimental-readout: cytotoxicity at 48 h
# output: numeric value plus its unit

Please supply the value of reported cytotoxicity at 48 h for the item CC(C)(C)c1[nH]cnc1/C=c1\[nH]c(=O)/c(=C/c2ccccc2)[nH]c1=O [KPU-2, tBu-dehydrophenylahistin]
64.3%

Data origin: patent US8247552B2
